# key: entry, value: APC binding (nm)
Measured on: T1, human activated protein C (APC) (human, UniProt P04070 43-461)
T1 construct: Bought (Haematologic Technologies; plasma-derived from Enzyme Research Laboratories); Two-chain disulfide-linked protease
Assay remarks: BLI (Octet): nanobody captured on anti-V5 sensor, dipped in 500 nM APC; buffer sensor reads 0.06
Numeric only. Scale: nm

# Binder, Readout, Value measured
data = [
    ("LP20 (SR16983-R4-P1-B07) (VHH, not shown: small tags and cut ends, Llama VHH purified from E. coli periplasm) VHH: QLQLVESGGGLVQAGGSLRLSCTASGSTVRVTAGGWYRQTPGNERELVADIDNGGSTTYADSVKGRFTISRDNAKNAVDLQMNSLKPEDTAVYRCFVIAIPDSAPRPRAYWGQGTEVTVSS", "APC binding (nm)", 0.3),
]

Proceeding to the next binder to report its APC binding (nm).
INPUT: Which APC binding (nm) value is on record for LP8 (SR16983-R3-P3-A04) (VHH, not shown: small tags and cut ends, Llama VHH purified from E. coli periplasm) VHH: QLQLVESGGGLVEAGGSLRLSCAASGRTFSSGALGWFRQAPGKEREFVATIRWSDERTQYSEFVKGRFTISRDNAKNTVYLQMNNLQPEDTAVYYCRSTVGNLLYWGQGTQVTVSS ?
OUTPUT: 0.32
